This listing pairs molecules with measured pIC50.
# TGT: RAC-alpha serine/threonine-protein kinase (Homo sapiens)
# Sequence (P31749 whole entry): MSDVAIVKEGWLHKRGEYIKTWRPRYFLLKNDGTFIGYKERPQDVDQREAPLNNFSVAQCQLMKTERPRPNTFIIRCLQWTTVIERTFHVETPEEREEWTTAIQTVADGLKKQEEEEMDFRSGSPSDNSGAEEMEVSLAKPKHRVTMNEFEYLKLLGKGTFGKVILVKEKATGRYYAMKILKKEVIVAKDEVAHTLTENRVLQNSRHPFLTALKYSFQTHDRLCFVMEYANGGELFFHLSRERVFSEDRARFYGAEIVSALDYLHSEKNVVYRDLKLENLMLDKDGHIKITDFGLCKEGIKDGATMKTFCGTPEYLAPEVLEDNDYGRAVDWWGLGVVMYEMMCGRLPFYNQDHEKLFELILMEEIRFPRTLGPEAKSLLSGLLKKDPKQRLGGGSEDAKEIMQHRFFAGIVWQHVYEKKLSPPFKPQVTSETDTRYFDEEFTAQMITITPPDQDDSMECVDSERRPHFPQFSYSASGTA
# ASSAY DETAILS: Inhibition of AKT
Please express pIC50 as -log10 of the molar concentration.

[Q] Recorded pIC50 for CCC[C@H]1O[C@@H]2CC(=O)O[C@@H]2C2=C1C(=O)c1c(O)cccc1C2=O , please?
[A] 6.70

[Q] Same again, this time with C[C@H]1O[C@@H]2CC(=O)O[C@@H]2C2=C1C(=O)c1ccccc1C2=O
[A] 6.82

[Q] Same again, this time with O=C1C[C@H]2O[C@H](COCc3ccccc3)C3=C(C(=O)c4ccccc4C3=O)[C@H]2O1 (racemic)
[A] 7.14

[Q] Same again, this time with CC1(C)O[C@@H]2CC(=O)O[C@@H]2C2=C1C(=O)c1ccccc1C2=O (racemic)
[A] 5.84

Next:
[Q] Recorded pIC50 for C[C@H]1O[C@@H]2CC(=O)O[C@@H]2C2=C1C(=O)c1c(ccc([C@H]3C[C@@H](N(C)C)[C@H](O)[C@@H](C)O3)c1O)C2=O , please?
[A] 6.83

[Q] Same again, this time with O=C1C[C@H]2O[C@@H](c3ccc(O)cc3)C3=C(C(=O)c4ccccc4C3=O)[C@H]2O1 (racemic)
[A] 7.10
